- tgt: T1, human IL-12 (human, UniProt P29459 23-219; P29460 23-328)
- T1 sequence (looked up) 1: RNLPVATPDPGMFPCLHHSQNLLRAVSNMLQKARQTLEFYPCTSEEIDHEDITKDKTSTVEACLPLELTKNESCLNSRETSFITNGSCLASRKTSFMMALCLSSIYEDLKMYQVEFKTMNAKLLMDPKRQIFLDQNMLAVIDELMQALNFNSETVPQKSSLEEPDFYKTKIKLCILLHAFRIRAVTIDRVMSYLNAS
- T1 sequence (looked up) 2: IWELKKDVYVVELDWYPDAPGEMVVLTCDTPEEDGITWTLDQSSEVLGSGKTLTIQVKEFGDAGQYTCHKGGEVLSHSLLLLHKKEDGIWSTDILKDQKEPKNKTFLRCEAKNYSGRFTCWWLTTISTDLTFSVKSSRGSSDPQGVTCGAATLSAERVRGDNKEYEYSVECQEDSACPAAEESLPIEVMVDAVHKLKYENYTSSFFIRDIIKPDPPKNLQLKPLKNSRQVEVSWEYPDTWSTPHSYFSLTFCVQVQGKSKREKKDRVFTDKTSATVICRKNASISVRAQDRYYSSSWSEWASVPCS
- assay details: cell-based or functional assay
observation type: PHA assay IC50 (nM)
Please give a number only; it is taken to be in nM.

Problem: Requested read-out: PHA assay IC50. Entry: 149-5 (scFv, V domains shown, scFv) VH: QVQLVQSGGGVVQPGRSLRLSCAASGFTFSSYGMHWVRQAPGKGLEWVAFIRYDGSNKYYADSVKGRFTISRDNSKNTLYLQMKSLRAEDTAVYYCTTHGSHDTWGQGTMVTVSS VL: SYVLTQPPSVSGTPGQRVTISCSGGRSNIGSNTVKWYQQLPGTAPKLLIYGNDQRPSGVPDRFSGSKSGTSASLAITGVQAEDEADYYCQSYDSSLWGTRVFGTGTKVTVLG
Solution: 3

Problem: Requested read-out: PHA assay IC50. Entry: 79-1 (scFv, V domains shown, scFv) VH: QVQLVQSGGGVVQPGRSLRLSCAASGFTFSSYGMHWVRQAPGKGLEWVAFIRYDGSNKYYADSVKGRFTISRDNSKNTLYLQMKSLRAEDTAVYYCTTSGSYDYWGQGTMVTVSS VL: SYVLTQPPSVSGTPGQRVTISCSGGRSNIGSNTVKWYQQLPGTAPKLLIYGNDQRPSGVPDRFSGSKSGTSASLAITGVQAEDEADYYCQSYDSSLWGSRVFGTGTKVTVL
Solution: 600
